Data provenance is paper PMC9352680.

# system name: T1, PUF4 RNA-binding domain (Saccharomyces cerevisiae, UniProt P25339 537-888)
# T1 sequence: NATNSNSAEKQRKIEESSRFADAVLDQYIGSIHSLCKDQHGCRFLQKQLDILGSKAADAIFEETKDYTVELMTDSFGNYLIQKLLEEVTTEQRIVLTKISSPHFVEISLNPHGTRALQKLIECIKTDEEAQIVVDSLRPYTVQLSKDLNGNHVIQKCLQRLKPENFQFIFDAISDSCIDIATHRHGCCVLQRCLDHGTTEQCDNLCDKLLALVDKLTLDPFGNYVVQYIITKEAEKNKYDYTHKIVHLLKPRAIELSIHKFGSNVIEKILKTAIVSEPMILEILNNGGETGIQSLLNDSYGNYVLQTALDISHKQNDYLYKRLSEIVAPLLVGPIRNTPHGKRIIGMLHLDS
# assay remarks: Mg; RNA-MaP; 20 mM Na-HEPES pH 7.4, 30 mM KOAc, 0.75 mM MgCl2, 0.1% Tween-20, 5% glycerol, 0.1 mg/mL BSA, 2 mM DTT; 25 C; 0.0125-409.6 nM protein
# measurement conditions: tags: N-His6-TEV cleaved; C-SNAP kept, Cy3B-labelled; label: tethered on chip by stalled RNA polymerase
pKd: −log10 of the molar value.
# pKd >= 7 gives class 1, anything below gives class 0

[[record]]
binder = "Id_ii_S4_P3E.3_K3.2_C3.2_[C-2G]_[T-1C]_H3.2_A3.1_F3.1_T3.2_[T9C]_[A10T] (ssRNA) RNA: UUUGACAACUGAUCGUUCUUUCUGCUAUAUAUACUUUCUUUCUCGAUCAGUUGUCUUU"
category_label = "class 0"

[[record]]
binder = "Id_ii_S2_P5E.3_K5.2_C5.2_[T-1C]_H5.2_A5.1_F5.1_T5.2_[T11C]_[A12T] (ssRNA) RNA: UUUGAUUAAUAUGAUAUCGUUCUUUCUCCUAUAUUAUUACUUUCUUUCUCGAUAUCAUAUUAAUCUUU"
category_label = "class 1"

[[record]]
binder = "Ib_S4_P3E.1_K3.1_C3.1_H3.1_[T1C]_A3.1_[A6T]_F3.1_T3.1 (ssRNA) RNA: UUUGACAACUGAUCGUUCUUUCUCGUAUUUAUUCUUUCUCGAUCAGUUGUCUUU"
category_label = "class 0"

[[record]]
binder = "UCUCUUUGUAAUCUUAUCUCUU (ssRNA) [Ib_S1_P5E.1_K5.1_C5.1_H5.1_A5.1_[T5A]_[A7C]_F5.1_T5.1]"
category_label = "class 1"

[[record]]
binder = "Ie_S2_P4E.1_K4.1_C4.1_H4.1_A4.1_F4.1_[+9CCC]_T4.1 (ssRNA) RNA: UUUGAUUAAUAUGAUAUCGUUCUUUCUUGUAUAUUACCCUUCUUUCUCGAUAUCAUAUUAAUCUUU"
category_label = "class 1"

[[record]]
binder = "UCUCUUUGUAAUAGUAUCUCUU (ssRNA) [Ib_S1_P5E.1_K5.1_C5.1_H5.1_A5.1_[T5A]_F5.1_[T8G]_T5.1]"
category_label = "class 1"

[[record]]
binder = "Ib_S4_P5E.1_K5.1_C5.1_H5.1_[G2C]_A5.1_[T6A]_F5.1_T5.1 (ssRNA) RNA: UUUGACAACUGAUCGUUCUUUCUUCUAUAAUUAUUCUUUCUCGAUCAGUUGUCUUU"
category_label = "class 0"

[[record]]
binder = "Id_ii_S4_P5E.2_K5.1_C5.2_[T-1G]_H5.1_A5.1_F5.1_T5.2_[T11G]_[A12T] (ssRNA) RNA: UUUGACAACUGAUCGUUCUUUCUCGUGUAUUAUUAGUUUCUUUCUCGAUCAGUUGUCUUU"
category_label = "class 1"

[[record]]
binder = "Ib_S4_P5E.1_K5.1_C5.1_H5.1_[T3C]_A5.1_[T5C]_F5.1_T5.1 (ssRNA) RNA: UUUGACAACUGAUCGUUCUUUCUUGCACUAUUAUUCUUUCUCGAUCAGUUGUCUUU"
category_label = "class 0"

[[record]]
binder = "Ic_S4_P5E.1_K5.1_C5.1_H5.1_A5.1_[T5C]_[T6C]_[A7C]_F5.1_[T9A]_[A10G]_T5.1 (ssRNA) RNA: UUUGACAACUGAUCGUUCUUUCUUGUACCCUAGUUCUUUCUCGAUCAGUUGUCUUU"
category_label = "class 1"

